Below are IC50 values recorded for Cathepsin S (Homo sapiens).
Include the unit after the number when you answer.

Recorded IC50, per entry:
>>> observed_result("CS(=O)(=O)N1CCc2c(c(-c3ccc(Br)cc3)nn2CCCN2CCC(N3C(=O)COc4ccccc43)CC2)C1")
"60 nM"
>>> observed_result("CS(=O)(=O)N1CCc2c(c(-c3ccc(Br)cc3)nn2CC(O)CN2CCC(N3CCc4ccccc4C3)CC2)C1 (centres undefined)")
"1780 nM"
>>> observed_result("CS(=O)(=O)N1CCc2c(c(-c3ccc(C(F)(F)F)cc3)nn2CC(O)CN2CCC(N3C(=O)OCc4ccccc43)CC2)C1 (centres undefined)")
"88 nM"

# lookup: IC50 of CS(=O)(=O)N1CCc2c(c(-c3ccc(C(F)(F)F)cc3)nn2CC(O)CN2CCC(N3C(=O)COc4ccccc43)CC2)C1 (centres undefined)
28 nM
